# assay method text: Study #1 Phase 1: plasma and urine pharmacokinetics of Compound 1 and Compound 1A after IV infusion of Compound 1 (SAD, MAD, loading regimen)
# particulars: both, human, plasma, 200 mg, Cmax, Cohort 4: Compound 1 200 mg/3 hr IV, single dose, geometric mean [geometric %CV]
quantity: Cmax (ng/mL)

molecule: Nc1ncccc1-c1cc(Cc2ccc(COc3ccccn3)cc2)no1 [Compound 1A]
quantity: Cmax
measured result: 2410

* * *

# assay method text: Study #2 Phase 1: pharmacokinetics after single IV and single/multiple oral doses of Compound 1, absolute oral bioavailability
# particulars: human, plasma, po, 500 mg, Cmax, 500 mg Oral Compound 1, fasted, geometric mean

compound: Nc1ncccc1-c1cc(Cc2ccc(COc3ccccn3)cc2)no1 [Compound 1A]
Cmax [ng/mL]: 6410

* * *

# assay method text: Study #2 Phase 1: pharmacokinetics after single IV and single/multiple oral doses of Compound 1, absolute oral bioavailability
# particulars: human, plasma, oral, 500 mg, AUC(0-24), Day 14, Cohort 2, 500 mg Tablets QD × 14 Days, fed, geometric mean

molecule: Nc1ncccc1-c1cc(Cc2ccc(COc3ccccn3)cc2)no1 [Compound 1A]
AUC(0-t) / µg·h/mL: 191

* * *

# assay method text: Study #1 Phase 1: plasma and urine pharmacokinetics of Compound 1 and Compound 1A after IV infusion of Compound 1 (SAD, MAD, loading regimen)
# particulars: both, human, plasma, 150 mg, Cmax, Cohort 8: Compound 1 150 mg/3 hr IV QD × 14 days, Day 7, geometric mean

record smiles: Nc1ncccc1-c1cc(Cc2ccc(COc3ccccn3)cc2)no1
units symbol: ng/mL
Cmax: 3090

* * *

# assay method text: Study #2 Phase 1: pharmacokinetics after single IV and single/multiple oral doses of Compound 1, absolute oral bioavailability
# particulars: human, plasma, oral, 1000 mg, AUC(0-24), Day 14, Cohort 3, 1000 mg Tablets QD × 14 Days, fed, geometric mean
quantity: AUC(0-t) (µg·h/mL)

molecule: Nc1ncccc1-c1cc(Cc2ccc(COc3ccccn3)cc2)no1 [Compound 1A]
quantity: AUC(0-t)
measured result: 326

* * *

# assay method text: Study #1 Phase 1: plasma and urine pharmacokinetics of Compound 1 and Compound 1A after IV infusion of Compound 1 (SAD, MAD, loading regimen)
# particulars: both, human, plasma, 1000 mg, Cmax, Cohort 11: Compound 1 1,000 mg/0.5 hr IV, single dose, geometric mean
quantity: Cmax (ng/mL)

record smiles: Nc1ncccc1-c1cc(Cc2ccc(COc3ccccn3)cc2)no1
quantity: Cmax
units symbol: ng/mL
measured result: 24900

* * *

# assay method text: Compound 1 pH solubility at room temperature
# Type: physicochemical
# particulars: pH 7, aqueous buffer, Study B, pH 7.0

record smiles: Nc1c(-c2cc(Cc3ccc(COc4ccccn4)cc3)no2)ccc[n+]1COP(=O)([O-])O
solubility, mg/mL: 53.7

* * *

# assay method text: Compound 1 pH solubility at room temperature
# Format: physicochemical
# particulars: pH 6.5, aqueous buffer, Study B, pH 6.5

record smiles: Nc1c(-c2cc(Cc3ccc(COc4ccccn4)cc3)no2)ccc[n+]1COP(=O)([O-])O
solubility, µg/mL: 4300

* * *

# assay method text: Study #2 Phase 1: pharmacokinetics after single IV and single/multiple oral doses of Compound 1, absolute oral bioavailability;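 further: phase 1 study design: one IV dose, then escalating single oral doses, fed versus fasted single oral dosing, and once-daily oral dosing over 14 days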
# particulars: human, plasma, po, 500 mg, Cmax, Day 7, Cohort 4, 500 mg Oral Solution QD × 14 Days, fed, geometric mean

record smiles: Nc1ncccc1-c1cc(Cc2ccc(COc3ccccn3)cc2)no1
units symbol: ng/mL
Cmax: 10400
